- test_method_notes: activity coefficient (dimensionless); of the first substance listed, at infinite dilution; xn = mol fraction of the nth substance listed
- cond: 338.15 K; 101 kPa; Liquid; Chromatography; x1 = 0
measured_endpoint: activity coefficient

Give activity coefficient for C1CCCCCCC1 [cyclooctane] + CCCCCCOCn1cc[n+](C)c1.O=S(=O)([N-]S(=O)(=O)C(F)(F)F)C(F)(F)F
6.35

Given CCCCCCCCCC [decane] + CCCCCCOCn1cc[n+](C)c1.O=S(=O)([N-]S(=O)(=O)C(F)(F)F)C(F)(F)F , respond with its activity coefficient.
17.7

# return recorded activity coefficient for entry c1ccccc1 [benzene] + CCCCCCOCn1cc[n+](COCCCCCC)c1.O=S(=O)([N-]S(=O)(=O)C(F)(F)F)C(F)(F)F
0.606

Kindly indicate its recorded activity coefficient. Item: C#CCCCC [1-hexyne] + CCCCCCOCn1cc[n+](COCCCCCC)c1.O=S(=O)([N-]S(=O)(=O)C(F)(F)F)C(F)(F)F
1.18

Specify activity coefficient for C#CCCC [1-pentyne] + CCCCCCOCn1cc[n+](COCCCCCC)c1.O=S(=O)([N-]S(=O)(=O)C(F)(F)F)C(F)(F)F and stop.
1.01

Consider the molecule CCCCC [pentane] + CCCCCCOCn1cc[n+](C)c1.O=S(=O)([N-]S(=O)(=O)C(F)(F)F)C(F)(F)F and give its recorded activity coefficient.
5.92

Tell me its activity coefficient given CCCCCC [hexane] + CCCCCCOCn1cc[n+](COCCCCCC)c1.O=S(=O)([N-]S(=O)(=O)C(F)(F)F)C(F)(F)F as the entry.
2.9
